Ref: PubChem BioAssay (NCI)

Would you kindly list TGI for each of these compounds?
Tested on: PC-3 prostate
protocol: NCI tumour cell line growth inhibition, 48 h

Task: Reported TGI, compound COc1nc(N=P(c2ccccc2)(c2ccccc2)c2ccccc2)cc(=O)[nH]1 : ____
Result: > 100 µM

Task: Reported TGI, compound O=C1CCC(N2C(=O)c3ccccc3C2=O)C(=O)N1CO (stereo not drawn) : ____
Result: > 100 µM

Task: Reported TGI, compound COC(=O)C1=C(O)C(C(=O)OC)[C@]2(O)[C@H](C(=O)OC)[C@H]1C[C@@H](c1ccc(OC)c(OC)c1)[C@H]2C(=O)OC (stereo partly drawn) : ____
Result: > 100 µM

###

System: MDA-N
protocol: NCI tumour cell line growth inhibition, 48 h
experimental_readout: TGI

Task: Reported TGI, compound COc1ccc(CC2CCc3nc(N)nc(N)c3C2)cc1OC (stereo not given) : ____
Result: > 44 µM

Task: Reported TGI, compound O=c1[nH]c(=O)n(CCOc2ccccc2)cc1Nc1ccccc1 : ____
Result: > 100 µM

Task: Reported TGI, compound N#CC12CNCC1CN=N2 (stereo not given) : ____
Result: > 100 µM

Task: Reported TGI, compound O=C1c2cccc([N+](=O)[O-])c2C(=O)N1c1ncn[nH]1 : ____
Result: > 100 µM

Task: Reported TGI, compound CCOC(=O)N(NC(=O)NC(C)C)c1ccccc1 : ____
Result: > 100 µM

###

Would you kindly list TGI for each of these compounds?
Test system: SR leukemia
protocol: NCI tumour cell line growth inhibition, 48 h

Task: Reported TGI, compound O=C1N=C(SC2OC(CO)C(O)C(O)C2O)S/C1=C\c1ccccc1 (stereo not drawn) : ____
Result: > 100 µM

Task: Reported TGI, compound COc1ccc2c(c1)[n+](=O)c(C(=O)C/C(=N/OCCCc1ccccc1)C(=O)NC13CC4CC(CC(C4)C1)C3)c(C)n2[O-] : ____
Result: > 100 µM

Task: Reported TGI, compound O=C1CSSCC(=O)Nc2ccccc2N1 : ____
Result: > 100 µM

Task: Reported TGI, compound C=C1[C@H](OC(C)=O)[C@H]2[C@@H](OC(C)=O)[C@@H](C)C[C@]2(C)C(=O)[C@H](C)/C=C/C(C)(C)C(=O)[C@H](OCC(C)C)[C@H]1OC(C)=O : ____
Result: > 25 µM

Task: Reported TGI, compound Cc1ccc2c(c1)Sc1c(ccc3ccccc13)N2 : ____
Result: > 100 µM

Task: Reported TGI, compound O=C(O)CCCn1nnc2c(=O)[nH][nH]c(=O)c21 : ____
Result: > 100 µM

Task: Reported TGI, compound CC(C)NC(NC(C)C)=C(S(=O)(=O)C(F)(F)C(F)(F)C(F)(F)C(F)(F)F)S(=O)(=O)C(F)(F)C(F)(F)C(F)(F)C(F)(F)F : ____
Result: > 100 µM

Task: Reported TGI, compound CCCCCCCC[C@@H](O)CC(=O)N[C@@H](CC(N)=O)C(=O)N[C@@H](CCC(N)=O)C(=O)N[C@@H](CC(=O)c1cc(C)cc(O)c1C(=O)c1c(O)cccc1O)CC(C)C : ____
Result: > 100 µM

Task: Reported TGI, compound Nc1nc2c(nnn2C2CC(O)C(CO)O2)c(=O)[nH]1 (stereo not drawn) : ____
Result: > 76.2 µM

Task: Reported TGI, compound CCOC(=O)/C(=C\c1ccccc1)C(=O)O : ____
Result: > 100 µM

Task: Reported TGI, compound CCCCC(=O)c1ccc2ccccc2c1O : ____
Result: > 100 µM

Task: Reported TGI, compound O=C(N/N=C/C=C/c1ccccc1)[C@H](O)[C@@H](O)C(=O)N/N=C/C=C/c1ccccc1 : ____
Result: > 100 µM

Task: Reported TGI, compound COc1ccc(-c2nc(-c3nc4ccc(Cl)cc4[nH]3)c3ccccn23)cc1 : ____
Result: > 100 µM

Task: Reported TGI, compound Cc1cc2c(cc1Cl)SC1=NN(C)S(=O)N1S2(=O)=O (stereo not drawn) : ____
Result: > 100 µM

Task: Reported TGI, compound O=[N+]([O-])c1ccc2c(c1)S(=O)(=O)N1Cc3ccccc3CCN21 : ____
Result: > 100 µM

Task: Reported TGI, compound O=C(O)c1ccccc1/C=N/NC1=NCCN1 : ____
Result: > 100 µM

Task: Reported TGI, compound CC1(C)C2CCC(CN)(C2)C1N (stereo not drawn) : ____
Result: > 100 µM

Task: Reported TGI, compound CCCn1c(=S)sc2c1nc(C)n1c(Nc3ccccc3)nnc21 : ____
Result: 16 µM

Task: Reported TGI, compound N#Cc1c(=O)n(-c2ccccc2)c(O)c2c(N)n[nH]c12 : ____
Result: > 100 µM

Task: Reported TGI, compound Cc1ccc(-c2nc3nc(-c4ccccc4)nc(N4CCCNCC4)c3o2)cc1 : ____
Result: 0.554 µM

Task: Reported TGI, compound NC(=S)N1N=C2c3ccccc3CC[C@@H]2[C@@H]1c1ccccc1 : ____
Result: 12.6 µM

Task: Reported TGI, compound COC(=O)C1=C(O)C(C(=O)OC)[C@]2(O)[C@H](C(=O)OC)[C@H]1C[C@@H](c1ccc(Cl)cc1)[C@H]2C(=O)OC (stereo partly drawn) : ____
Result: > 100 µM

Task: Reported TGI, compound CCC(C)(C)C1CCC2c3c([nH]c4ccccc34)C3C(=O)N(c4ccc(OC)cc4)C(=O)C3C2C1 (stereo not drawn) : ____
Result: 75.3 µM

###

Tested on: M14 melanoma
protocol: NCI tumour cell line growth inhibition, 48 h
Would you kindly list TGI for each of these compounds?

Task: Form entry - test system: M14 melanoma; read-out: TGI; compound: COc1ccc(N2C(=O)/C(=C/c3ccc(N(CCC#N)CCC#N)cc3C)N=C2c2cc([N+](=O)[O-])ccc2Cl)cc1
Result: 24.4 µM

Task: Form entry - test system: M14 melanoma; read-out: TGI; compound: O=C1NC(=O)C(CCC(=O)c2ccc3ccccc3c2)C(=O)N1
Result: > 100 µM

Task: Form entry - test system: M14 melanoma; read-out: TGI; compound: N#C/C(=C\c1ccc2ccccc2c1)c1ccccc1
Result: 65.6 µM

Task: Form entry - test system: M14 melanoma; read-out: TGI; compound: CC1CN1C(=O)NCCCCCCNC(=O)N1CC1C (centres undefined)
Result: > 100 µM

Task: Form entry - test system: M14 melanoma; read-out: TGI; compound: Ic1ccc2c(c1)N(c1ccccc1)c1cc(N=c3ccc4nc5ccc(I)cc5n(-c5ccccc5)c-4c3)ccc1N2
Result: 80.1 µM

Task: Form entry - test system: M14 melanoma; read-out: TGI; compound: Nc1nc(N(Cc2ccccc2)c2ccccc2)c2cn[nH]c2n1
Result: > 100 µM

Task: Form entry - test system: M14 melanoma; read-out: TGI; compound: Nc1cccc(S(=O)(=O)NCC(=O)O)c1
Result: > 100 µM

Task: Form entry - test system: M14 melanoma; read-out: TGI; compound: N#CC1C(=O)N(c2ccccc2)NC12OC(=O)c1ccncc12 (centres undefined)
Result: > 20 µM

Task: Form entry - test system: M14 melanoma; read-out: TGI; compound: CCN(CCO)C(=O)C1(c2ccccc2)CCCCC1
Result: > 10 µM

###

System: SK-OV-3 ovarian
protocol: NCI tumour cell line growth inhibition, 48 h; in the data active = GI50 below about 0.43 µM; inactive = the rest
Give your call using only these classes: label 1 (active), label 0 (inactive)

Task: Please state the recorded outcome for this compound: COc1ccc(-c2onc(N)c2-c2cc(OC)c3c(c2)OCO3)cc1
Result: label 0

Task: Please state the recorded outcome for this compound: Cc1ccc(C(=O)NC(C)C)cc1-c1ccc(C(=O)NCC2CC2)cc1
Result: label 0

Task: Please state the recorded outcome for this compound: N#CC(C#N)=C1Nc2ccccc2S1
Result: label 0

Task: Please state the recorded outcome for this compound: C=C(C[C@](O)(C(=O)/C=C/c1ccc(Cl)cc1)C(=O)OC)c1ccccc1
Result: label 0

Task: Please state the recorded outcome for this compound: COc1ccc2c(c1)C(=O)c1c-2n(CCCn2ccnc2)c(=O)c2cc([N+](=O)[O-])ccc12
Result: label 1

Task: Please state the recorded outcome for this compound: CCCC(=O)OCC1OC(n2cnc3c(=S)nc[nH]c32)C(OC(=O)CCC)C1OC(=O)CCC (stereo unspecified)
Result: label 0

###

Would you kindly list GI50 for each of these compounds?
Tested on: A498 renal
protocol: NCI tumour cell line growth inhibition, 48 h

Task: Reported GI50, compound Cc1ccc(-c2nc3nc(-c4ccccc4)nc(N4CCCNCC4)c3o2)cc1 : ____
Result: 1.53 µM

Task: Reported GI50, compound CC/C=C\C[C@@H](O)C/C=C1/C(=O)C=C[C@H]1C/C=C\CCCC(=O)OC : ____
Result: 14.6 µM

Task: Reported GI50, compound Nc1nc2c(nnn2C2CC(O)C(CO)O2)c(=O)[nH]1 (centres undefined) : ____
Result: 8.22 µM

Task: Reported GI50, compound O=C(O)/C=C(\c1nc2ccc([N+](=O)[O-])cc2[nH]1)c1cc(Cl)ccc1O : ____
Result: 2.46 µM
